assay: mitochondrial membrane potential change in A549 cells, profiling panel, cell-based, JC-1 fluorescence, basal, 24 h, 100 nL (AID 1138); conditions: higher = more signal;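 also: A549 lung adenocarcinoma cells under basal conditions with no added stimulus; test concentration not given here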
Attribute measured: z-score

1) CCCNC(=O)[C@@H]1c2ccccc2C(=O)N(Cc2ccccc2Cl)[C@H]1c1ccc(CO)cc1
3.16
2) CO[C@H]1COC(=O)[C@H](C)NC(=O)[C@@H](C)COC(=O)CC=C[C@@H]1C
-0.855
3) COC(=O)CC=C[C@@H](C)[C@H](OC)c1ccccc1Br
0.688
4) C#CCCCON=C1C[C@@H](O)[C@@H](O)[C@@H]2[C@@H]3C(=O)N(c4cccc(Oc5ccccc5)c4)C(=O)[C@@H]3CC[C@@H]12
-0.786

---

assay: small-molecule microarray binders of probe aCHRDL2, primary screen, biochemical, biotinylated probe, 635/667 nm fluorescence (AID 1100); conditions: higher = more signal
// composite z-score lookup, one value per entry
Attribute measured: composite z-score

1) O=C1C[C@@H](O)[C@@H](O)[C@@H]2[C@@H]3C(=O)N(c4ccc(F)cc4F)C(=O)[C@@H]3CC[C@@H]12
-0.602
2) CC(=O)OC[C@H]1O[C@@H](ON=C(C)CCN2CCc3nc(-c4ccccc4)c(-c4ccccc4)cc3C2)[C@H](OC(C)=O)[C@@H](OC(C)=O)[C@@H]1OC(C)=O
-0.413
3) O=C1[C@H]2[C@H]3[C@H](O)[C@H](O)CC(=NO[C@@H]4O[C@H](CO)[C@@H](O)[C@H](O)[C@H]4O)[C@H]3CC[C@H]2C(=O)N1Cc1ccccc1
-0.752

---

// z-score lookup, one value per entry
assay: P. aeruginosa biofilm formation inhibitors, primary screen, PAO1 strain, BacTiter-Glo luminescence, LB-PBS (AID 1144); conditions: 12 h, higher = more signal
Attribute measured: z-score

1) CCN1C(=O)[C@H]2[C@H]3[C@H](O)C=CC(=O)[C@@H]3CC[C@H]2C1=O
0.465
2) COC(=O)[C@@H]1CC[C@H](C)[C@@H](c2ccc(C)cc2)N1C(=O)c1ccc(C=NOC(C)CN2CCCCc3nc(C)c(C)cc32)cc1 (stereo partly drawn)
-0.356
3) COC(=O)[C@H](C)NC(=O)CCC1CC(OC(=O)NCCc2ccc(F)cc2)CC2(CCCC(COC(=O)NCCc3ccc(Cl)cc3)O2)O1 (stereo partly drawn)
-0.739
4) CC(=O)C[C@H](O)[C@@H](NC(=O)OC(C)(C)C)C(C)C
-1.13
5) C=CC[C@@H]1C=C[C@H](ON=C(C)CCN2CCc3nc(CC)c(CC)cc3C2)[C@@H](CO)O1
0.983
6) C[C@H]1CC[C@@H](C(=O)O)N[C@@H]1c1ccc(C#CCN(C)C)cc1
-0.0379
7) c1ccc(C2NCCc3c2[nH]c2ccccc32)cc1 (stereo not drawn)
-0.0191
8) CCOC(=O)C[C@H]1[C@H](OC(=O)c2cc3ccccc3oc2=O)[C@@H](NC(=O)c2ccc3ccccc3n2)c2cc(OCCCO)ccc2N1C(=O)c1ccccc1
0.287

---

target: Streptavidin (Streptomyces avidinii); test: streptavidin binders on small-molecule microarray, primary screen, artefact control for SMM compound annotation, biophysical, 635/667 nm fluorescence (AID 1147); conditions: streptavidin binding, higher = more signal;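 also: signal reflects streptavidin binding to arrayed compounds as a control protein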
Attribute measured: composite z-score

1. CO[C@@H]1COC(=O)CCC[C@@H](C)[C@H](OC)COC(=O)CCC[C@H]1C
0.0601
2. CCCCCN1CC=CC23O[C@@H]4C=CCOC(=O)[C@@H]4[C@H]2C(=O)N(CCCCCCO)[C@@H]3C1=O (stereo partly specified)
-0.976
3. CCOC(=O)[C@H](CC(C)C)NC(=O)CCC1CC(OC(=O)NCCc2ccc(F)cc2)CC2(CCCC(COC(=O)NCc3ccccc3)O2)O1 (stereo partly specified)
0.255
4. O=C1[C@H]2[C@H]3[C@H](O)[C@H](O)CC(=NOCc4ccccc4)[C@@H]3CC[C@H]2C(=O)N1C1CCCCC1
-0.0498
5. Cc1cc(C)c(-c2cc([C@H](C)ON=C3[C@H]4CCn5c(=O)n(-c6ccccc6)c(=O)n5[C@H]4[C@H](O)[C@@H]4O[C@H]34)on2)c(C)c1
0.548
6. CCCC[C@@H](O)C1=C(C)C[C@H]2C(=O)N(Cc3ccccc3)C(=O)[C@H]2[C@H]1CO
-0.451
7. COCCCNC(=O)[C@@]1(C)c2ccccc2C(=O)N(Cc2ccc(OC(F)(F)F)cc2)[C@H]1c1ccc(CO)cc1
-0.773
8. CN1C(=O)C2C=CC(C(O)c3ccc(Br)cc3)N(N(c3ccccc3)c3ccccc3)C2C1=O (stereo unspecified)
1.04
9. NCCCCCNC(=O)[C@@H]1C[C@@H]2C(=O)N3CCC[C@H]3C(=O)N2[C@@H]1c1cccc(OCCO)c1
0.899
10. C[C@H]1CC[C@@H](C(=O)O)N[C@@H]1c1ccc(C#CCN(C)C)cc1
0.85
11. CCN1C(=O)[C@H]2[C@H]3[C@H](O)[C@H](O)CC(=NOC[C@@H](C)[C@H](OCc4ccccc4)C(C)C)[C@@H]3CC[C@H]2C1=O
0.251
12. COc1ccccc1CN1C(=O)c2ccccc2[C@@H](C(=O)NCC(F)(F)F)[C@@H]1c1ccc(CO)cc1
0.299
13. COC(=O)[C@@]1(Cc2ccccc2)[C@H]2c3cc(C(=O)N4CCCC4)n(Cc4ccccn4)c3C[C@H]2CN1C(=O)c1ccccc1
1.02
14. C#CCCCON=C1C[C@@H](O)[C@@H](O)[C@@H]2[C@@H]3C(=O)N(Cc4ccccc4)C(=O)[C@@H]3CC[C@H]12
0.0194
15. COC(=O)C1=C(C)N(Cc2ccccc2)[C@]23O[C@](C(=O)OC)(C(=O)N2[C@@H]1c1ccccc1)[C@H]1CCOC(=O)[C@H]13
0.0391
16. CC(CCC(=O)OC[C@H]1O[C@H](C#Cc2ccccc2)C=C[C@@H]1Oc1ccc(C)cc1)=NOC[C@@H](O)[C@H]1O[C@@H]2OC(C)(C)O[C@@H]2[C@H]1O
-0.564
17. COC(=O)CC=C[C@H](C)[C@@H](OCc1ccccc1Br)C(C)C
0.228
18. CC(=O)O[C@H]1C2=C(C(=O)[C@@H]3O[C@@H]31)[C@H]1C(C)O[C@@H]2[C@@]23C(=O)[C@@H]4O[C@@H]4[C@@H](O)C2=CO[C@H](C)[C@@H]13 (stereo partly specified)
-0.503
19. CN1C(=O)C2C(C1=O)C1C=C(CCCO)C2C(c2ccc(CN3CCCC3)cc2)N1C (stereo unspecified)
-0.383
20. O=C1[C@H]2[C@H]3[C@H](O)[C@H](O)CC(=NO[C@@H]4O[C@H](CO)[C@@H](O)[C@H](O)[C@H]4O)[C@@H]3CC[C@H]2C(=O)N1Cc1ccccc1
-0.561
21. CC(CCN1CCc2nc(-c3ccccc3)c(-c3ccccc3)cc2C1)=NO[C@@H](C)c1cn([C@H](CO)Cc2ccccc2)nn1
0.52
22. COc1ccc(O[C@H]2C=C[C@@H](c3ccccc3)O[C@@H]2COC(=O)CCC(C)=NOC[C@@H](C)[C@H](OCc2ccccc2)C(C)C)cc1
-0.892
23. CC(=O)OC[C@H]1O[C@H](C#CCCCc2ccccc2)C=C[C@@H]1OC(C)=O
-0.111
24. COC(=O)[C@@H]1CCCN1C(=O)[C@@H](C)CO
0.746
25. COC(=O)[C@H](C)NC(=O)CCC1CC(OC(=O)NCc2cccc3ccccc23)CC2(CCCC(COC(=O)NCCc3ccc(Cl)cc3)O2)O1 (stereo partly specified)
0.558
26. COCCOC(=O)N1C(=O)[C@@]2(c3cc(C#CCNC(N)=O)ccc31)[C@H](c1ccccc1OCCO)N1[C@H](c3ccccc3)[C@H](c3ccccc3)OC(=O)[C@H]1[C@@H]2C(=O)N1CCN(c2ncccn2)CC1
0.29
